In this section we review reported Kd values for a set of binders.
# target-of-assay: T1, recombinant human LRP1 cluster II (R&D Systems, amino acids 786-1165, with C-terminal Fc tag) (human, UniProt Q07954 786-1165)
# T1 construct: range 786-1165; Bought from R&D Systems; coated on plates; also called LRP1-C2; not shown: C-terminal Fc tag of the bought protein
# T1 sequence (looked up): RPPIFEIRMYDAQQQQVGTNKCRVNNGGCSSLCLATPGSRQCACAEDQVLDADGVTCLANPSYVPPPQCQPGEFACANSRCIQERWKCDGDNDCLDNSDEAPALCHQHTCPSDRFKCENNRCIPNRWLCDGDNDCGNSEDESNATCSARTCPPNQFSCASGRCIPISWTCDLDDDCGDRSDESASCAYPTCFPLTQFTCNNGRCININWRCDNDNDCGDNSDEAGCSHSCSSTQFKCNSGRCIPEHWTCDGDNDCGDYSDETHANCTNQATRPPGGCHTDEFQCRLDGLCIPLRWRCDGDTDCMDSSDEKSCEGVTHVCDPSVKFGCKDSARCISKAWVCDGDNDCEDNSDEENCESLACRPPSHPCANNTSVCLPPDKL
# test-details: solid phase binding assay, LRP1 cluster II-Fc coated on plate
# Description: Control wells contained no added inhibitor. Wells were washed with TBS supplemented with 5 mM CaCl₂ and 0.05% Tween-20. […] Excess HRP conjugate was removed and wells washed. Color was developed using TMB reagents (BioRad, Hercules, Calif.).
Bridge positions count the residues as written; N and C are the ends. * marks the point of attachment. Biotin = O=C1N[C@H]2[C@H](CS[C@H]2CCCCC(=O)*)N1

binder | Kd
mRAP-8c (N-terminal biotin (biotin-GGSGG), Cysteines at both ends are meant for cyclization by a disulfide bond) peptide: GGSGGCGKHFEAKIEKHNHYQKQLEIAHEKLRHAESVGDGERVSRSREKHALLEGRTKELGYTVKKHLQDGC | ~4 nM
mRAP-14c (disulfide 6-65, Cysteines at both ends are meant for cyclization by a disulfide bond) peptide: Biotin-GGSGGCEAKIEKHNHYQKQLEIAHEKLRHAESVGDGERVSRSREKHALLEGRTKELGYTVKKHGC | ~21 nM

This collection of values is drawn from patent US20120251444A1.
